Biological target: hGlyT2^D633E (Homo sapiens, UniProt Q9Y345, D633E)
Sequence (Q9Y345 whole entry D633E): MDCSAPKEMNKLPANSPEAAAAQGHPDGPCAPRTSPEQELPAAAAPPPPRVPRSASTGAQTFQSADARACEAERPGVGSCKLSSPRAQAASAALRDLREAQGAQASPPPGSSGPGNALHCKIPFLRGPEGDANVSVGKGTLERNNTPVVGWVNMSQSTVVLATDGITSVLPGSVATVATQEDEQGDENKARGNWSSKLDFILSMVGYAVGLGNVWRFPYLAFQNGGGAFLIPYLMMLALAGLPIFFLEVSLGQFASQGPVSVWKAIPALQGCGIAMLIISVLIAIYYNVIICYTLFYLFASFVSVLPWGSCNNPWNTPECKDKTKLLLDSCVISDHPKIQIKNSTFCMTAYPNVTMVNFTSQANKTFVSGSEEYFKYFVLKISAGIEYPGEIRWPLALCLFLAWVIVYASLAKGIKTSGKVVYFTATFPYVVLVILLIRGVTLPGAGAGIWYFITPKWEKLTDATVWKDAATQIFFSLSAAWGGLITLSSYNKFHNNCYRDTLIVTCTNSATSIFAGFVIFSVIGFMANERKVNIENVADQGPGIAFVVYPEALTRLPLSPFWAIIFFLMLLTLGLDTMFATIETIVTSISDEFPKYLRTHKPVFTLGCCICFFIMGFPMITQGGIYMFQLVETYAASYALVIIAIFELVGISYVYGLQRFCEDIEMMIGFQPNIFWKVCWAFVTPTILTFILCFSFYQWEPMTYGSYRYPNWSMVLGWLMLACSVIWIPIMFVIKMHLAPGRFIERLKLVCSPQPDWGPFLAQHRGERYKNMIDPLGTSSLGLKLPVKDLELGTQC
pIC50: −log10 of the molar value.
QUANTITY: pIC50

smiles_data=CN(C)C1(CNC(=O)c2ccc3c(c2)CCN3C(=O)c2ccccc2)CCOCC1 system_under_test="hGlyT2^D633E (Homo sapiens, UniProt Q9Y345, D633E)" quantity=pIC50 reported_result="< 5.00"

====

Target: serotonin 2A (5-HT2A) receptor (Homo sapiens)
Sequence (P28223 whole entry, species assumed): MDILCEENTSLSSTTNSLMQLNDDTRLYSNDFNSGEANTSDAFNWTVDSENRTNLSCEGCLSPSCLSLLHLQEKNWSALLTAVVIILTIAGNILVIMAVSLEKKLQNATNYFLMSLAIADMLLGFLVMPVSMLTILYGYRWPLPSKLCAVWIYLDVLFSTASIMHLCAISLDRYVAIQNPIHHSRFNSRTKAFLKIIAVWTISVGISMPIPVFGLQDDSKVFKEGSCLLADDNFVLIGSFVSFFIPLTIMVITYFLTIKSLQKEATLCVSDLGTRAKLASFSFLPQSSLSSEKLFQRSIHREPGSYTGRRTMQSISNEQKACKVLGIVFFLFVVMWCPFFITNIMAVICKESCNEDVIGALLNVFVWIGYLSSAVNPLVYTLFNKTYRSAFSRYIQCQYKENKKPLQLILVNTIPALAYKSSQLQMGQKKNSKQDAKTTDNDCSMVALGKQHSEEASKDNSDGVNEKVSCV
Test: 5-HT2A receptor antagonist IC50 determination
pIC50: −log10 of the molar value.
QUANTITY: pIC50

compound="CN(C)C1(CNC(=O)c2ccc3c(c2)CCN3C(=O)c2ccccc2)CCOCC1 [RPI-GLYT2–82]" reported_result=5.72

====

Biological target: hGlyT2^W215F (Homo sapiens, UniProt Q9Y345, W215F)
Sequence (Q9Y345 whole entry W215F): as the sequence (Q9Y345 whole entry D633E) above, with W215F, E633D counted along it
QUANTITY: IC50

smiles_data=CN(C)C1(CNC(=O)c2ccc3c(c2)CCN3C(=O)c2ccccc2)CCOCC1 system_under_test="hGlyT2^W215F (Homo sapiens, UniProt Q9Y345, W215F)" reported_result="> 10 µM"

====

Target: hGlyT2^WT (Homo sapiens)
Sequence (Q9Y345 whole entry): as the sequence (Q9Y345 whole entry D633E) above, with E633D counted along it
Format: cell-based
QUANTITY: IC50

compound=CN(C)C1(CNC(=O)c2ccc3c(c2)CCN3C(=O)c2ccccc2)CCOCC1 reported_result="550 nM"
compound="COc1cc(C(=O)NCC2(N(C)C)CCCC2)cc(OC)c1OCc1ccccc1 [ORG25543, reference compound]" reported_result="11.4 nM"

====

Biological target: UniProt:Q9Y345
Assay: Sodium dependence of inhibition of glycine transport currents
Type: cell-based
Conditions: IC50 at 100 mM Na+, 100 mM Na+, 300 μM glycine
Entries annotated with measured IC50
QUANTITY: IC50

compound="COc1cc(C(=O)NCC2(N(C)C)CCCC2)cc(OC)c1OCc1ccccc1 [ORG25543, reference compound]" system_under_test=UniProt:Q9Y345 reported_result="17.6 nM"
compound=CN(C)C1(CNC(=O)c2ccc3c(c2)CCN3C(=O)c2ccccc2)CCOCC1 system_under_test=UniProt:Q9Y345 reported_result="279 nM"
